Listed below: pest or weed control at 31 g/ha values for each entry.
system: barnyardgrass (Echinochloa crus-galli); assay: Test A preemergence, barnyardgrass; type: in vivo; details: Echinochloa crus-galli, pre-emergence, 240 h; Preemergence, 31 g ai/ha; 0 to 100 scale (0 no effect, 100 complete control); read-out: Plant response rating, Barnyardgrass
All answers are understood in %, so give the number only.

Query: Note pest or weed control at 31 g/ha for the compound shown: FC(F)(F)COc1c(Cl)cccc1Oc1ncc(Cl)cn1
Response: 0

Query: Note pest or weed control at 31 g/ha for the compound shown: N#Cc1cccc(Oc2ncc(Cl)cn2)c1OC/C=C/C(F)(F)F
Response: 30

Query: Note pest or weed control at 31 g/ha for the compound shown: N#Cc1cccc(Oc2ncc(Cl)cn2)c1OCC(F)(F)F
Response: 10

Query: Note pest or weed control at 31 g/ha for the compound shown: N#Cc1cccc(Oc2ncc(F)cn2)c1OCC(F)(F)F
Response: 0

Query: Note pest or weed control at 31 g/ha for the compound shown: N#Cc1cccc(Oc2ncc(Cl)cn2)c1OCCC(F)(F)F
Response: 70

Query: Note pest or weed control at 31 g/ha for the compound shown: N#Cc1cccc(Oc2ncc(F)cn2)c1OCCCC(F)(F)F
Response: 60

Query: Note pest or weed control at 31 g/ha for the compound shown: N#Cc1cccc(Oc2ncc(Cl)cn2)c1OCCCC(F)(F)F
Response: 80

Query: Note pest or weed control at 31 g/ha for the compound shown: Cc1cccc(Oc2ncc(Cl)cn2)c1OCC(F)(F)F
Response: 0

----------
tested on: corn (Zea mays); test: Test A postemergence, corn; assay type: in vivo; details: Zea mays, post-emergence, 240 h; 125 g ai/ha, postemergence; 0 to 100 scale, 0 is no effect, 100 is complete control; approximately 10 days
Listed below: Corn plant response rating (crop injury, 0 = no effect, 100 = complete kill) at 125 g/ha values for each entry.
All answers are understood in %, so give the number only.

Query: Report value only: Corn plant response rating (crop injury, 0 = no effect, 100 = complete kill) at 125 g/ha, corn (Zea mays), FC(F)(F)COc1c(Cl)cccc1Oc1ncc(Cl)cn1 [Compound 42]
Response: 10

Query: Report value only: Corn plant response rating (crop injury, 0 = no effect, 100 = complete kill) at 125 g/ha, corn (Zea mays), N#Cc1cccc(Oc2ncc(Cl)cn2)c1OCC(F)(F)F [Compound 1]
Response: 10

Query: Report value only: Corn plant response rating (crop injury, 0 = no effect, 100 = complete kill) at 125 g/ha, corn (Zea mays), CCCCOc1c(C#N)cccc1Oc1ncc(Cl)cn1 [Compound 35]
Response: 20

Query: Report value only: Corn plant response rating (crop injury, 0 = no effect, 100 = complete kill) at 125 g/ha, corn (Zea mays), N#Cc1cccc(Oc2ncc(F)cn2)c1OCC(F)(F)F [Compound 41]
Response: 10

----------
system: kochia (Kochia scoparia); assay: Test A postemergence, kochia; format: in vivo; conditions: 125 g ai/ha, postemergence; 0 to 100 scale, 0 is no effect, 100 is complete control; approximately 10 days
Listed below: Plant response rating, Kochia values for each entry.
Reply: number alone, nothing else.

Query: Note Plant response rating, Kochia for the compound shown: FCCCOc1c(F)cccc1Oc1ncc(Cl)cn1 [Compound 26]
Response: 60
